Target: 5-hydroxytryptamine receptor 1A (Homo sapiens)
Sequence (P08908 whole entry): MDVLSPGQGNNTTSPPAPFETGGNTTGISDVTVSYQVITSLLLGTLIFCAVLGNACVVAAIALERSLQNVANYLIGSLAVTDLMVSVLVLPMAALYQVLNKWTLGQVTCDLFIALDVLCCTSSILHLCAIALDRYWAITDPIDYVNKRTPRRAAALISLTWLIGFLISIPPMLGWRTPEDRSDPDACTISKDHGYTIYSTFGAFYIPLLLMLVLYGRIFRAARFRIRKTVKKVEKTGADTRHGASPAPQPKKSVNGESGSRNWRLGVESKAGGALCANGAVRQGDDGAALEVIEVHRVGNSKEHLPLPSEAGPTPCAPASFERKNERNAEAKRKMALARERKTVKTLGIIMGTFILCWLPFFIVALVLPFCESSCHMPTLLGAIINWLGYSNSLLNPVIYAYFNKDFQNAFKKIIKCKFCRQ
pIC50: −log10 of the molar value.
REPORTED_METRIC: pIC50

| CPD_SMILES | MEASURED_TARGET | RESULT |
| --- | --- | --- |
| CC1(C)OC(=O)N([C@H]2CC[C@H](c3cnc(N)c(-c4ncccn4)c3)CC2)[C@H]1c1ccccc1 | 5-hydroxytryptamine receptor 1A (Homo sapiens) | < 4.31 |

---

Experiment: Terminal plasma concentration in athymic nude mouse xenografted with human DLD1 cells at 200 mg/kg, po bid for 3 days
Type: ADME, organism-based, DLD-1
Design: dose 200 mg/kg, route oral
Details: read-out: Cp(T)
REPORTED_METRIC: concentration at 72 h (µM)

| CPD_SMILES | NUMERIC_READOUT |
| --- | --- |
| CC1(C)OC(=O)N(c2ccc(-c3cnc(N)c(-c4ncccn4)c3)cc2)[C@H]1c1ccccc1 | 22.1 |

---

Molecular target: Muscarinic acetylcholine receptor M1 (Homo sapiens, UniProt P11229)
Sequence (P11229 whole entry): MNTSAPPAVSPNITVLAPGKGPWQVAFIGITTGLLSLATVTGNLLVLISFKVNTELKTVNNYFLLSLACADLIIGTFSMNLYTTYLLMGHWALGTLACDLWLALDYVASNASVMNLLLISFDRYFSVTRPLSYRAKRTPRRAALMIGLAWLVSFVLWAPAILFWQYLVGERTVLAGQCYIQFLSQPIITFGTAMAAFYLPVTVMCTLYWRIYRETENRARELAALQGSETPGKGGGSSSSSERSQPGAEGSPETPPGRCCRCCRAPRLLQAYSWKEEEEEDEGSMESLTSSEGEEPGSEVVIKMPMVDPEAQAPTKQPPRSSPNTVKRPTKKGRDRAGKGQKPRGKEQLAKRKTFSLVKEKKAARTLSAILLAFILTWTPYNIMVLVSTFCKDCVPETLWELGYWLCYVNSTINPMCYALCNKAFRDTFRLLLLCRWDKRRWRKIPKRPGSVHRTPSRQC

| CPD_SMILES | MEASURED_TARGET | IC50 |
| --- | --- | --- |
| CC1(C)OC(=O)N([C@H]2CC[C@H](c3cnc(N)c(-c4ncccn4)c3)CC2)[C@H]1c1ccccc1 | Muscarinic acetylcholine receptor M1 (Homo sapiens, UniProt P11229) | > 48.5 µM |

---

Molecular target: Poly [ADP-ribose] polymerase 1 (Homo sapiens)
Sequence (P09874 whole entry): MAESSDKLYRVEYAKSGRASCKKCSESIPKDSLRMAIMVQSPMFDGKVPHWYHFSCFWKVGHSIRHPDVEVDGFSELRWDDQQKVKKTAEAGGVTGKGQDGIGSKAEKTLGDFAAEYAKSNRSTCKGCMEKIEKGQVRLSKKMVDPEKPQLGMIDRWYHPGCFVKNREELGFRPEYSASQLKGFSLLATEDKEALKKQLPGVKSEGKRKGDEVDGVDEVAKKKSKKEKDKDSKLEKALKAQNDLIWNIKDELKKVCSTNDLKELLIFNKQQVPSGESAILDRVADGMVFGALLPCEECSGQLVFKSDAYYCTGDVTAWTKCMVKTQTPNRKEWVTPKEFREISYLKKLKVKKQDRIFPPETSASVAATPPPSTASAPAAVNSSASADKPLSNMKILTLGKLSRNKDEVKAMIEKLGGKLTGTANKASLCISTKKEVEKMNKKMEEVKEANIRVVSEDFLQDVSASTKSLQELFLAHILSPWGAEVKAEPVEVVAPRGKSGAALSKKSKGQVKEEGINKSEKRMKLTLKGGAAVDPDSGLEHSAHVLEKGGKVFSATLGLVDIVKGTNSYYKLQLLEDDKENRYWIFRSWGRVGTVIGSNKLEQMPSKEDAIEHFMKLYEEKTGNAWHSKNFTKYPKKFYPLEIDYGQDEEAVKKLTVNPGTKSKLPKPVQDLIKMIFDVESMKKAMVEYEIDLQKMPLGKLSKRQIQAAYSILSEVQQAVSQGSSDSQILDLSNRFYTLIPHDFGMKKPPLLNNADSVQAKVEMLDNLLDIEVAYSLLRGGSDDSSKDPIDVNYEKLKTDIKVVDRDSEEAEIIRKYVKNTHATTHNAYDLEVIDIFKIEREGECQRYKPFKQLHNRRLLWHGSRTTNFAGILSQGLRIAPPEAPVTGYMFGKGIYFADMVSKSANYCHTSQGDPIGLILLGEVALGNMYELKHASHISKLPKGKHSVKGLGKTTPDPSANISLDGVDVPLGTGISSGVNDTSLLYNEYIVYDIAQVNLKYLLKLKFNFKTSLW
REPORTED_METRIC: IC50

| CPD_SMILES | REPORTED_METRIC | RESULT |
| --- | --- | --- |
| CC1(C)OC(=O)N([C@H]2CC[C@H](c3cnc(N)c(-c4ncccn4)c3)CC2)[C@H]1c1ccccc1 | IC50 | > 85 µM |

---

Molecular target: Voltage-gated inwardly rectifying potassium channel KCNH2 (Homo sapiens)
pIC50: −log10 of the molar value.
REPORTED_METRIC: pIC50

| CPD_SMILES | NUMERIC_READOUT |
| --- | --- |
| CC1(C)OC(=O)N([C@H]2CC[C@H](c3cnc(N)c(-c4ncccn4)c3)CC2)[C@H]1c1ccccc1 | 4.96 |

---

Molecular target: Poly [ADP-ribose] polymerase tankyrase-2 (Homo sapiens)
Sequence (Q9H2K2 whole entry): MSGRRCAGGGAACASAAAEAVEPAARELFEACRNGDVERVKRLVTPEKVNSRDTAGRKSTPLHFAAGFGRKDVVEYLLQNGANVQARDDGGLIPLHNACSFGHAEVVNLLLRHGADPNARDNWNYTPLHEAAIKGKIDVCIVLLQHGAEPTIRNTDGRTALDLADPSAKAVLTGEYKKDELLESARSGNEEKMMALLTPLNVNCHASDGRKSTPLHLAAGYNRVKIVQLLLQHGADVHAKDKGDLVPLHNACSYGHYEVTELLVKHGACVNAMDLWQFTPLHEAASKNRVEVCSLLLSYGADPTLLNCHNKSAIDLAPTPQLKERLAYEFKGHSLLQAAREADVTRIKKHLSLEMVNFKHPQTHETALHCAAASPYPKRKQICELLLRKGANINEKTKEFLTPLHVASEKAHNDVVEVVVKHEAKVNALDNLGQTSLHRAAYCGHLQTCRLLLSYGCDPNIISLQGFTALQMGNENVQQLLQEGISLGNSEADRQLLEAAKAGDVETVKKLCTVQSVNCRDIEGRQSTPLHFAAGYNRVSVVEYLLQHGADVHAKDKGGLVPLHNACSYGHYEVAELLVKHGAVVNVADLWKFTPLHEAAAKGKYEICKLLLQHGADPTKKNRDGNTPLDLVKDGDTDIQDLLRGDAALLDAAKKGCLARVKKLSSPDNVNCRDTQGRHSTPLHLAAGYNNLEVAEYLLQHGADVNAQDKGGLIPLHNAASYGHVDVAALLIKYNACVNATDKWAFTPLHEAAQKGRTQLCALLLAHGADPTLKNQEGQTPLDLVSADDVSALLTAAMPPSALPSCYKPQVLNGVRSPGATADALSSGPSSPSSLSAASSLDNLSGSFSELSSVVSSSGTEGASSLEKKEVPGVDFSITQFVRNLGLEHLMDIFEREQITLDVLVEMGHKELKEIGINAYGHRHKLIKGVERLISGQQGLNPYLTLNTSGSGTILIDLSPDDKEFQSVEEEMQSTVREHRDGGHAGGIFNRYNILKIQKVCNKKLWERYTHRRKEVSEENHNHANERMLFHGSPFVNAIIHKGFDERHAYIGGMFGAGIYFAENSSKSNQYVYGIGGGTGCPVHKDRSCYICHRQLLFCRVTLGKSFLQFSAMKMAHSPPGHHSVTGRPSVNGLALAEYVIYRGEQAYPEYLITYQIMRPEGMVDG
Assay: Inhibition of recombinant TNKS2 (unknown origin) after 60 mins by spectrophotometric analysis
pIC50: −log10 of the molar value.

| CPD_SMILES | MEASURED_TARGET | pIC50 |
| --- | --- | --- |
| CC1(C)OC(=O)N([C@H]2CC[C@H](c3cnc(N)c(-c4ncccn4)c3)CC2)[C@H]1c1ccccc1 | Poly [ADP-ribose] polymerase tankyrase-2 (Homo sapiens) | 8.70 |

---

Target: UniProt O95342
Sequence (O95342 whole entry): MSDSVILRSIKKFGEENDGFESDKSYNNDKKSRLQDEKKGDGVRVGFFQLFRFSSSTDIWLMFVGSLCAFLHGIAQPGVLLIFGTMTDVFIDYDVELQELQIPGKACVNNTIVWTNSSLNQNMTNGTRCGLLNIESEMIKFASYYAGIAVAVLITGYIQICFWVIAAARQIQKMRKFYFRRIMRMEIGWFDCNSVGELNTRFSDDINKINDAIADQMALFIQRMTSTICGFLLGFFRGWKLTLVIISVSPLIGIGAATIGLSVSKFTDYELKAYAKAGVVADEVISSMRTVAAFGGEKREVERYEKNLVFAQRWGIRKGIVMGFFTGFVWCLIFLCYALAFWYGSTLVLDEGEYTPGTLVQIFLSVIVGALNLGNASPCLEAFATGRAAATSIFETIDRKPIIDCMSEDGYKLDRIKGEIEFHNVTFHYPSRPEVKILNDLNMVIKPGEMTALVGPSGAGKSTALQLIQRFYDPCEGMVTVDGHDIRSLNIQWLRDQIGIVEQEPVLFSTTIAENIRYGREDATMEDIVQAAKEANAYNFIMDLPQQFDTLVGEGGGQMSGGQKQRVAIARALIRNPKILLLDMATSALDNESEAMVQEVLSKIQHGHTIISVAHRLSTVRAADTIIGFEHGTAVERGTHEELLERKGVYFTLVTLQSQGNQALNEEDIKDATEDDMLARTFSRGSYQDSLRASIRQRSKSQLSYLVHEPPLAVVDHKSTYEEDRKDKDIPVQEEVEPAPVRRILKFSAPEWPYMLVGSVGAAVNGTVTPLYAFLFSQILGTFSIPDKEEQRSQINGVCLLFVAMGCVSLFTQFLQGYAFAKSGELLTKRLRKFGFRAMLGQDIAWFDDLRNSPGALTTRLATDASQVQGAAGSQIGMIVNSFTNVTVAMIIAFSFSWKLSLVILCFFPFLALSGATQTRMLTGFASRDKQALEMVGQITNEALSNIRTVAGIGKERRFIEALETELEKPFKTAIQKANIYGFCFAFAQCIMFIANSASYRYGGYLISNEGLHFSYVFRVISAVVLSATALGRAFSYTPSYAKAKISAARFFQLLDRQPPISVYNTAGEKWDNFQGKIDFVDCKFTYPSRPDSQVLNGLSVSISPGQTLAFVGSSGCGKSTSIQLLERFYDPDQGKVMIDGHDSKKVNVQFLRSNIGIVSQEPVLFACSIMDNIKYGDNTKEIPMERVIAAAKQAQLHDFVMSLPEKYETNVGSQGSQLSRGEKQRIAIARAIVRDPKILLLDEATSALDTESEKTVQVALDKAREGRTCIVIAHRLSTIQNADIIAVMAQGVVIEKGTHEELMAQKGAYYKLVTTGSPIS

| CPD_SMILES | IC50 |
| --- | --- |
| CC1(C)OC(=O)N([C@H]2CC[C@H](c3cnc(N)c(-c4ncccn4)c3)CC2)[C@H]1c1ccccc1 | 11 µM |

---

Target: UniProt P41597
Sequence (P41597 whole entry): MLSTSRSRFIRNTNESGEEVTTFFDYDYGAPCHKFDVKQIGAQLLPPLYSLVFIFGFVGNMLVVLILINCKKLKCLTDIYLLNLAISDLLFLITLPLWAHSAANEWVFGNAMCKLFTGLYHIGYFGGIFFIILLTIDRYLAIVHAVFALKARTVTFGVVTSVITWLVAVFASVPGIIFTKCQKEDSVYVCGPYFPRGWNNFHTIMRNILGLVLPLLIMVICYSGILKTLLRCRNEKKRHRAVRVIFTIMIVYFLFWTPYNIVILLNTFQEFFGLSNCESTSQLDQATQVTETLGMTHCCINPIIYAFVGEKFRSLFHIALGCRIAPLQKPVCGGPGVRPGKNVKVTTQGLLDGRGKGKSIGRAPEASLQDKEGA

| CPD_SMILES | MEASURED_TARGET | IC50 |
| --- | --- | --- |
| CC1(C)OC(=O)N([C@H]2CC[C@H](c3cnc(N)c(-c4ncccn4)c3)CC2)[C@H]1c1ccccc1 | UniProt P41597 | > 48.5 µM |

---

Test: Clearance in Sprague-Dawley rat at 0.5 mg/kg, iv
Format: ADME, organism-based
Set-up: dose 0.5 mg/kg, route intravenous
Conditions: in vivo

| CPD_SMILES | clearance, mL/min/kg |
| --- | --- |
| CC1(C)OC(=O)N([C@H]2CC[C@H](c3cnc(N)c(-c4ncccn4)c3)CC2)[C@H]1c1ccccc1 | 12.5 |
| CC1(C)OC(=O)N(c2ccc(-c3cnc(N)c(-c4ncccn4)c3)cc2)[C@H]1c1ccccc1 | 8.67 |
